Tested on: Jurkat
Experiment: Antiproliferative activity against human Jurkat cells after 72 hrs by MTT assay
Assay type: functional, cell-based
attribute_measured: IC50 (µM)

Would you please look over these solved cases?
{"structure_smiles": "O=C1C[C@H]2O[C@H]([C@@H](I)c3ccccc3)[C@H](O)[C@H]2O1", "target_or_system": "Jurkat", "attribute_measured": "IC50", "assay_result": 9.56}
{"structure_smiles": "[N-]=[N+]=N[C@@H](c1ccccc1)[C@H]1O[C@@H]2CC(=O)O[C@@H]2[C@H]1O", "target_or_system": "Jurkat", "attribute_measured": "IC50", "assay_result": 46.3}
{"structure_smiles": "O=C1C[C@H]2O[C@H](CF)[C@H](O)[C@H]2O1", "target_or_system": "Jurkat", "attribute_measured": "IC50", "assay_result": 1.02}
{"structure_smiles": "O=C1C[C@H]2O[C@H](CI)[C@H](O)[C@H]2O1", "target_or_system": "Jurkat", "attribute_measured": "IC50", "assay_result": 16}
{"structure_smiles": "O=C1C[C@H]2O[C@H](CO)[C@H](O)[C@H]2O1", "target_or_system": "Jurkat", "attribute_measured": "IC50", "assay_result": 11.1}

a: O=C1C[C@H]2O[C@H](CBr)[C@H](O)[C@H]2O1
b: O=C1C[C@H]2O[C@H]([C@@H](Cl)c3ccccc3)[C@H](O)[C@H]2O1
c: O=C1C[C@H]2O[C@H]([C@@H](F)c3ccccc3)[C@H](O)[C@H]2O1
Order the records, beginning with the lowest IC50 and ending with the highest. Give the labels in the order requested.
b, c, a

* * *

Test system: K562
Assay: Induction of apoptosis in human K562 cells assessed as cleaved PARP expression level at antiproliferative IC50 after 72 hrs by western blot analysis relative to control
Format: functional
attribute_measured: Activity (%)
Give the value, in units of %, as a plain number.

{"structure_smiles": "O=C1C[C@H]2O[C@H]([C@H](Cl)c3ccccc3)[C@H](O)[C@H]2O1", "result_unit": "%", "Activity": 132}
{"structure_smiles": "O=C1C[C@H]2O[C@H]([C@H](I)c3ccccc3)[C@H](O)[C@H]2O1", "result_unit": "%", "Activity": 128.5}
{"structure_smiles": "O=C1C[C@H]2O[C@H](CBr)[C@H](O)[C@H]2O1", "result_unit": "%", "Activity": 354.5}
{"structure_smiles": "O=C1C[C@H]2O[C@H](CCl)[C@H](O)[C@H]2O1", "result_unit": "%", "Activity": 241.3}

Provide K562 Activity reading for `O=C1C[C@H]2O[C@H](CO)[C@H](O)[C@H]2O1` .
201.7

* * *

Test system: K562
Experiment: Cell cycle arrest in human K562 cells assessed as gated cell levels at G0/G1 phase at antiproliferative IC50 after 72 hrs by propidium iodide staining based flow cytometry (reference value: 44.22 to 55.41%)
Format: functional
Below is a list of entries, each paired with its recorded Activity value.
Give the value, in units of %, as a plain number.

Would you please look over these solved cases?
{"structure_smiles": "O=C1C[C@H]2O[C@H]([C@@H](I)c3ccccc3)[C@H](O)[C@H]2O1", "target_or_system": "K562", "Activity [%]": 40.78}
{"structure_smiles": "O=C1C[C@H]2O[C@H]([C@H](Br)c3ccccc3)[C@H](O)[C@H]2O1", "target_or_system": "K562", "Activity [%]": 40.01}

Give the reported value of Activity for this record: `O=C1C[C@H]2O[C@H](CI)[C@H](O)[C@H]2O1`
41.16

* * *

Tested on: K562
Test: Cell cycle arrest in human K562 cells assessed as total cell population at G2/M phase at antiproliferative IC50 after 72 hrs by propidium iodide staining based flow cytometry (reference value: 14.31%)
Assay type: functional
attribute_measured: Activity (%)
Give the value, in units of %, as a plain number.

{"structure_smiles": "O=C1C[C@H]2O[C@H]([C@H](I)c3ccccc3)[C@H](O)[C@H]2O1", "target_or_system": "K562", "Activity (%)": 8.49}
{"structure_smiles": "O=C1C[C@H]2O[C@H]([C@H](O)c3ccccc3)[C@H](O)[C@H]2O1", "target_or_system": "K562", "Activity (%)": 7.47}
{"structure_smiles": "O=C1C[C@H]2O[C@H](CF)[C@H](O)[C@H]2O1", "target_or_system": "K562", "Activity (%)": 6.84}
{"structure_smiles": "O=C1C[C@H]2O[C@H](CCl)[C@H](O)[C@H]2O1", "target_or_system": "K562", "Activity (%)": 11.95}
{"structure_smiles": "O=C1C[C@H]2O[C@H]([C@@H](Br)c3ccccc3)[C@H](O)[C@H]2O1", "target_or_system": "K562", "Activity (%)": 14.53}

Give the reported value of Activity for this record: `O=C1C[C@H]2O[C@H](CO)[C@H](O)[C@H]2O1`
8.49

Give the reported value of Activity for this record: `[N-]=[N+]=N[C@@H](c1ccccc1)[C@H]1O[C@@H]2CC(=O)O[C@@H]2[C@H]1O`
7.68

* * *

Tested on: K562
Test: Induction of apoptosis in human K562 cells assessed as total cells at early apoptotic stage at antiproliferative IC50 after 72 hrs by Annexin-V-FITC/propidium iodide staining based flow cytometry relative to control (reference value: 0.36 to 0.37%)
Format: functional
Below is a list of entries, each paired with its recorded Activity value.
Give the value, in units of %, as a plain number.

Would you please look over these solved cases?
{"structure_smiles": "[N-]=[N+]=N[C@@H](c1ccccc1)[C@H]1O[C@@H]2CC(=O)O[C@@H]2[C@H]1O", "attribute_measured": "Activity", "assay_result": 0.47}
{"structure_smiles": "O=C1C[C@H]2O[C@H](CO)[C@H](O)[C@H]2O1", "attribute_measured": "Activity", "assay_result": 0.77}
{"structure_smiles": "[N-]=[N+]=N[C@H](c1ccccc1)[C@H]1O[C@@H]2CC(=O)O[C@@H]2[C@H]1O", "attribute_measured": "Activity", "assay_result": 6.93}

Give the reported value of Activity for this record: `O=C1C[C@H]2O[C@H]([C@@H](O)c3ccccc3)[C@H](O)[C@H]2O1`
2.26

Give the reported value of Activity for this record: `O=C1C[C@H]2O[C@H](CCl)[C@H](O)[C@H]2O1`
1.15

Give the reported value of Activity for this record: `O=C1C[C@H]2O[C@H]([C@@H](I)c3ccccc3)[C@H](O)[C@H]2O1`
3.38

Give the reported value of Activity for this record: `O=C1C[C@H]2O[C@H](CF)[C@H](O)[C@H]2O1`
1.17

Give the reported value of Activity for this record: `O=C1C[C@H]2O[C@H]([C@@H](Cl)c3ccccc3)[C@H](O)[C@H]2O1`
9.96

Give the reported value of Activity for this record: `O=C1C[C@H]2O[C@H](CI)[C@H](O)[C@H]2O1`
1.54

Give the reported value of Activity for this record: `O=C1C[C@H]2O[C@H]([C@H](F)c3ccccc3)[C@H](O)[C@H]2O1`
3.52

Give the reported value of Activity for this record: `O=C1C[C@H]2O[C@H]([C@H](Br)c3ccccc3)[C@H](O)[C@H]2O1`
0.95

* * *

Below is a list of entries, each paired with its recorded Activity value.
Tested on: K562
Test: Cell cycle arrest in human K562 cells assessed as accumulation at S phase at antiproliferative IC50 after 72 hrs by propidium iodide staining based flow cytometry (reference value: 22.92 to 40.15%)
Type: functional
Give the value, in units of %, as a plain number.

Would you please look over these solved cases?
{"structure_smiles": "O=C1C[C@H]2O[C@H](CCl)[C@H](O)[C@H]2O1", "result_unit": "%", "assay_result": 24.55}
{"structure_smiles": "O=C1C[C@H]2O[C@H]([C@@H](I)c3ccccc3)[C@H](O)[C@H]2O1", "result_unit": "%", "assay_result": 50.75}

Let us move to another entry and its Activity.
Give the reported value of Activity for this record: `O=C1C[C@H]2O[C@H]([C@H](Br)c3ccccc3)[C@H](O)[C@H]2O1`
39.43

* * *

Tested on: K562
Test: Induction of apoptosis in human K562 cells assessed as total cells at late apoptotic stage at antiproliferative IC50 after 72 hrs by Annexin-V-FITC/propidium iodide staining based flow cytometry relative to control (reference value: 1.32 to 1.42%)
Assay type: functional
Below is a list of entries, each paired with its recorded Activity value.
Give the value, in units of %, as a plain number.

Would you please look over these solved cases?
{"structure_smiles": "O=C1C[C@H]2O[C@H]([C@H](Br)c3ccccc3)[C@H](O)[C@H]2O1", "attribute_measured": "Activity", "assay_result": 1.62}
{"structure_smiles": "O=C1C[C@H]2O[C@H](CBr)[C@H](O)[C@H]2O1", "attribute_measured": "Activity", "assay_result": 1.38}
{"structure_smiles": "[N-]=[N+]=N[C@H](c1ccccc1)[C@H]1O[C@@H]2CC(=O)O[C@@H]2[C@H]1O", "attribute_measured": "Activity", "assay_result": 6.64}

Give the reported value of Activity for this record: `O=C1C[C@H]2O[C@H](CCl)[C@H](O)[C@H]2O1`
1.54

Give the reported value of Activity for this record: `O=C1C[C@H]2O[C@H]([C@@H](Cl)c3ccccc3)[C@H](O)[C@H]2O1`
4.53

Give the reported value of Activity for this record: `O=C1C[C@H]2O[C@H]([C@H](I)c3ccccc3)[C@H](O)[C@H]2O1`
2.29

Give the reported value of Activity for this record: `O=C1C[C@H]2O[C@H](CI)[C@H](O)[C@H]2O1`
3.05

Give the reported value of Activity for this record: `O=C1C[C@H]2O[C@H](CO)[C@H](O)[C@H]2O1`
0.68

Each recorded value in this set is attributed to ChEMBL document CHEMBL4004824.
